These data points were gathered from paper PMC2887388.

Listed here are compounds together with their documented pIC50.
# Test system: HT-29 human colon cancer cell line
# assay_procedure: Cytotoxicity assay against HT-29 human colon cancer cell line
# Assay type: cell-based
# test_conditions: HT-29, read-out: cytotoxicity ED50
pIC50: −log10 of the molar value.

Example entries and their recorded answers appear below.
COc1cc2oc3cc(O)c(OC)c(CC=C(C)C)c3c(=O)c2c2c1CC(O)C(C)(C)O2 (stereo not drawn) [Compound 1, 11-hydroxy-3-O-methyl-1-isomangostin] | < 5.00
COc1c(O)cc2oc3cc4c(c(O)c3c(=O)c2c1CC=C(C)C)[C@@H](c1c(O)c(CC=C(C)C)c(O)c2c(=O)c3c(CC=C(C)C)c(OC)c(O)cc3oc12)[C@H](C(C)(C)O)O4 | < 5.00

Now for the compound whose pIC50 we want.
[Q] Return reported pIC50. Input compound: COc1c(O)cc2oc3cc(O)c4c(c3c(=O)c2c1CC=C(C)C)OC(C)(C)C(O)C4 (stereo not drawn) [Compound 2, 11-hydroxy-1-isomangostin]
[A] < 5.00
